Assignment: determine reported % inhibition for the given substances.
Test system: human Factor 11 mRNA
Protocol text: Antisense inhibition of human Factor 11 in HepG2 cells by microwalk gapmers, lipofectin, 75 nM (Example 3)
Type: cell-based
Experimental parameters: HepG2, lipofectin, ~24 h, gapmers targeted to nucleobases 656 to 704 of SEQ ID NO: 1
Strand notation (5' to 3'): a small letter for the sugar, then the base; units joined by * are phosphorothioate-linked, units joined directly phosphodiester-linked; [ ] holds rarer units or linkages, { } end groups; capitals alone tell only the bases. e = 2'-O-(2-methoxyethyl) (MOE); [5mC] = 5-methylcytosine; d = 2'-deoxy (DNA)
Form entry: value (%) — number only.

Lookup: Determine from records and report % inhibition for 416952 (antisense e[5mC]*e[5mC]*dA*d[5mC]*dA*dT*dA*dA*dA*dT*dG*dT*d[5mC]*dT*dT*eT*eG*eT*eT*eG) [compound 416952]
Found: 51

Lookup: Give reported % inhibition value for 416883 (antisense eG*eT*e[5mC]*dT*dA*dG*dG*dT*d[5mC]*d[5mC]*dA*d[5mC]*dA*dT*dA*dA*dA*eT*eG*eT) [compound 416883]
Found: 82

Lookup: Input 416875 (antisense e[5mC]*e[5mC]*eA*d[5mC]*dA*dT*dA*dA*dA*dT*dG*dT*d[5mC]*dT*dT*dT*dG*eT*eT*eG) [compound 416875] , output reported % inhibition.
Found: 75

Lookup: Please look at this substance and report its % inhibition: 416809 (antisense e[5mC]*eA*eT*eA*eA*dA*dT*dG*dT*d[5mC]*dT*dT*dT*dG*dT*eT*eG*e[5mC]*eA*eA) [compound 416809]
Found: 86

Lookup: Output % inhibition of 416956 (antisense eA*eG*dG*dT*d[5mC]*d[5mC]*dA*d[5mC]*dA*dT*dA*dA*dA*dT*dG*eT*e[5mC]*eT*eT*eT) [compound 416956]
Found: 61

----------
Protocol text: Tolerability in Sprague-Dawley rats: hematology assays (Example 44)
Assay type: in vivo
Experimental parameters: 50 mg/kg s.c. twice per week for 6 weeks, blood
Strand notation (5' to 3'): a small letter for the sugar, then the base; units joined by * are phosphorothioate-linked, units joined directly phosphodiester-linked; [ ] holds rarer units or linkages, { } end groups; capitals alone tell only the bases. e = 2'-O-(2-methoxyethyl) (MOE); [5mC] = 5-methylcytosine; d = 2'-deoxy (DNA)
Readout type: WBC (nL⁻¹)
Respond numerically; units are nL⁻¹ and should not be typed.

Lookup: Entry ISIS 449709: 3-8-3, 4-8-4, 2-10-2, 3-10-3 or 4-10-4 MOE microwalk gapmer (Table 46) (antisense eG*e[5mC]*eA*e[5mC]*dA*dG*dT*dT*dT*d[5mC]*dT*dG*dG*d[5mC]*eA*eG*eG*e[5mC]) needs its WBC filled in; supply it.
Found: 14

Lookup: Give the value of WBC reported for the following: ISIS 449710: 3-8-3, 4-8-4, 2-10-2, 3-10-3 or 4-10-4 MOE microwalk gapmer (Table 46) (antisense e[5mC]*eA*e[5mC]*dA*dG*dT*dT*dT*d[5mC]*dT*dG*dG*d[5mC]*eA*eG*eG)
Found: 13

Lookup: Give a short answer stating reported WBC for ISIS 449708: 3-8-3, 4-8-4, 2-10-2, 3-10-3 or 4-10-4 MOE microwalk gapmer (Table 46) (antisense eA*e[5mC]*eA*dG*dT*dT*dT*d[5mC]*dT*dG*dG*e[5mC]*eA*eG) .
Found: 22

Lookup: Supply recorded WBC for ISIS 449711: 3-8-3, 4-8-4, 2-10-2, 3-10-3 or 4-10-4 MOE microwalk gapmer (Table 46) (antisense eA*e[5mC]*dA*dG*dT*dT*dT*d[5mC]*dT*dG*dG*d[5mC]*eA*eG) here.
Found: 13

Lookup: Specify WBC for ISIS 449707: 3-8-3, 4-8-4, 2-10-2, 3-10-3 or 4-10-4 MOE microwalk gapmer (Table 46) (antisense e[5mC]*eA*e[5mC]*eA*dG*dT*dT*dT*d[5mC]*dT*dG*dG*e[5mC]*eA*eG*eG) and stop.
Found: 20

----------
Protocol text: Hematology assays in cynomolgus monkeys (Example 45)
Format: in vivo
Experimental parameters: day 43; escalating dose regimen
Readout type: hematocrit (%)
Give just the number in %; leave the unit off.

Lookup: Using the record for ISIS 417002: MOE gapmer, nucleobases 1275 to 1318 of SEQ ID NO: 1 (Table 8) (antisense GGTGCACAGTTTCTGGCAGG; MOE gapmer, wing and gap sizes not given here) , state its measured hematocrit.
Found: 41

Lookup: Please list hematocrit recorded for the substance ISIS 416838: MOE gapmer, nucleobases 1018 to 1042 of SEQ ID NO: 1 (Table 6) (antisense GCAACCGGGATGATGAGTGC; MOE gapmer, wing and gap sizes not given here)
Found: 43

Lookup: Determine its reported hematocrit: ISIS 416858: MOE gapmer, nucleobases 1275 to 1318 of SEQ ID NO: 1 (Table 8) (antisense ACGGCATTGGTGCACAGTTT; MOE gapmer, wing and gap sizes not given here)
Found: 40

Lookup: Note hematocrit for the substance shown: ISIS 416850: MOE gapmer, nucleobases 1275 to 1318 of SEQ ID NO: 1 (Table 8) (antisense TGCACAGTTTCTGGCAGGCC; MOE gapmer, wing and gap sizes not given here)
Found: 40

Lookup: Please list hematocrit recorded for the substance ISIS 416864: MOE gapmer, nucleobases 1275 to 1318 of SEQ ID NO: 1 (Table 8) (antisense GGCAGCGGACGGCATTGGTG; MOE gapmer, wing and gap sizes not given here)
Found: 42

----------
Give measured ALT for each item. Keep answers brief.
Experimental parameters: mouse, in vivo, sc, 50 mg/kg
e = 2'-O-(2-methoxyethyl) (MOE); d = 2'-deoxy (DNA)
Field: numeric (IU/L). Do not append units.

Lookup: Specify reported ALT for the substance shown: ISIS 445532: 5-8-5 or 6-8-6 MOE microwalk gapmer (Table 44) (antisense CGGCATTGGTGCACAGTT; sugars from the 5' end e5 d8 e5, backbone and methylation of C not given here)
Found: 395

Lookup: Please look at this substance and report its ALT: ISIS 445504: 5-8-5 or 6-8-6 MOE microwalk gapmer (Table 44) (antisense GGCATTGGTGCACAGTTTCT; sugars from the 5' end e6 d8 e6, backbone and methylation of C not given here)
Found: 71

Lookup: Read the entry ISIS 445503: 5-8-5 or 6-8-6 MOE microwalk gapmer (Table 44) (antisense GCATTGGTGCACAGTTTCTG; sugars from the 5' end e6 d8 e6, backbone and methylation of C not given here) and write its reported ALT.
Found: 1314

Lookup: Hello, please tell me recorded ALT for this one: ISIS 445530: 5-8-5 or 6-8-6 MOE microwalk gapmer (Table 44) (antisense GCATTGGTGCACAGTTTC; sugars from the 5' end e5 d8 e5, backbone and methylation of C not given here)
Found: 104

----------
Test system: blood coagulation
Protocol text: PT and aPTT assay in cynomolgus monkeys (Example 45)
Format: in vivo
Experimental parameters: day 22; escalating dose regimen; platelet poor plasma
I'd appreciate it if you could supply aPTT ratio (INR) values for the items below.
// print number alone

Lookup: # return recorded aPTT ratio (INR) for input ISIS 416850: MOE gapmer, nucleobases 1275 to 1318 of SEQ ID NO: 1 (Table 8) (antisense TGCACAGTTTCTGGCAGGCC; MOE gapmer, wing and gap sizes not given here)
Found: 1.13

Lookup: For ISIS 416864: MOE gapmer, nucleobases 1275 to 1318 of SEQ ID NO: 1 (Table 8) (antisense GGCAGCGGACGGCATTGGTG; MOE gapmer, wing and gap sizes not given here) , write its aPTT ratio (INR).
Found: 1.11

Lookup: Fill in reported aPTT ratio (INR) for this entry: ISIS 416858: MOE gapmer, nucleobases 1275 to 1318 of SEQ ID NO: 1 (Table 8) (antisense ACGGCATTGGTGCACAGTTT; MOE gapmer, wing and gap sizes not given here)
Found: 1.18

Lookup: For the substance ISIS 416838: MOE gapmer, nucleobases 1018 to 1042 of SEQ ID NO: 1 (Table 6) (antisense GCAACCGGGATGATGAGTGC; MOE gapmer, wing and gap sizes not given here) , give its measured aPTT ratio (INR) value.
Found: 1.20

Lookup: Indicate the recorded aPTT ratio (INR) value for this substance: ISIS 417002: MOE gapmer, nucleobases 1275 to 1318 of SEQ ID NO: 1 (Table 8) (antisense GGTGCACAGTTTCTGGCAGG; MOE gapmer, wing and gap sizes not given here)
Found: 1.16

----------
Experimental parameters: mouse, in vivo, sc, 50 mg/kg
e = 2'-O-(2-methoxyethyl) (MOE); d = 2'-deoxy (DNA)
Provide the recorded RBC for the entries that follow.

Lookup: Look up RBC of ISIS 412224: 5-10-5 MOE gapmer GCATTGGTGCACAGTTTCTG (sugars from the 5' end e5 d10 e5, backbone and methylation of C not given here) and report it.
Found: 10 10^6/μL

Lookup: Report RBC, nothing else, for this substance: ISIS 413481: 5-10-5 MOE gapmer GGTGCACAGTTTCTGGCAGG (sugars from the 5' end e5 d10 e5, backbone and methylation of C not given here)
Found: 9 10^6/μL

Lookup: Determine from records and report RBC for ISIS 416861: MOE gapmer, nucleobases 1275 to 1318 of SEQ ID NO: 1 (Table 8) (antisense GCGGACGGCATTGGTGCACA; MOE gapmer, wing and gap sizes not given here)
Found: 9 10^6/μL

Lookup: State, in one line, measured RBC of ISIS 413482: 5-10-5 MOE gapmer GGACGGCATTGGTGCACAGT (sugars from the 5' end e5 d10 e5, backbone and methylation of C not given here)
Found: 10 10^6/μL

Lookup: Let me know recorded RBC for ISIS 416854: MOE gapmer, nucleobases 1275 to 1318 of SEQ ID NO: 1 (Table 8) (antisense ATTGGTGCACAGTTTCTGGC; MOE gapmer, wing and gap sizes not given here) , thanks.
Found: 9 10^6/μL

Lookup: Answer with the recorded RBC for the substance listed here: ISIS 416866: MOE gapmer, nucleobases 1275 to 1318 of SEQ ID NO: 1 (Table 8) (antisense CTGGCAGCGGACGGCATTGG; MOE gapmer, wing and gap sizes not given here)
Found: 9 10^6/μL

Lookup: Supply reported RBC belonging to this substance: ISIS 416863: MOE gapmer, nucleobases 1275 to 1318 of SEQ ID NO: 1 (Table 8) (antisense CAGCGGACGGCATTGGTGCA; MOE gapmer, wing and gap sizes not given here)
Found: 9 10^6/μL

Lookup: Look up RBC of ISIS 416850: MOE gapmer, nucleobases 1275 to 1318 of SEQ ID NO: 1 (Table 8) (antisense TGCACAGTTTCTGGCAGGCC; MOE gapmer, wing and gap sizes not given here) and report it.
Found: 10 10^6/μL

Lookup: Look up and report measured RBC for this entry: ISIS 416865: MOE gapmer, nucleobases 1275 to 1318 of SEQ ID NO: 1 (Table 8) (antisense TGGCAGCGGACGGCATTGGT; MOE gapmer, wing and gap sizes not given here)
Found: 9 10^6/μL

Lookup: Given the substance ISIS 416849: MOE gapmer, nucleobases 1275 to 1318 of SEQ ID NO: 1 (Table 8) (antisense GCACAGTTTCTGGCAGGCCT; MOE gapmer, wing and gap sizes not given here) , write its reported RBC.
Found: 9 10^6/μL

Lookup: Using the record for ISIS 416853: MOE gapmer, nucleobases 1275 to 1318 of SEQ ID NO: 1 (Table 8) (antisense TTGGTGCACAGTTTCTGGCA; MOE gapmer, wing and gap sizes not given here) , state its measured RBC.
Found: 11 10^6/μL

Lookup: Look up and state reported RBC for ISIS 412223: 5-10-5 MOE gapmer ACAGTTTCTGGCAGGCCTCG (sugars from the 5' end e5 d10 e5, backbone and methylation of C not given here)
Found: 9 10^6/μL

Lookup: // fetch RBC given entry ISIS 416857: MOE gapmer, nucleobases 1275 to 1318 of SEQ ID NO: 1 (Table 8) (antisense CGGCATTGGTGCACAGTTTC; MOE gapmer, wing and gap sizes not given here)
Found: 10 10^6/μL

Lookup: Read the entry ISIS 416860: MOE gapmer, nucleobases 1275 to 1318 of SEQ ID NO: 1 (Table 8) (antisense CGGACGGCATTGGTGCACAG; MOE gapmer, wing and gap sizes not given here) and write its reported RBC.
Found: 10 10^6/μL

Lookup: Please supply the value of reported RBC for the item ISIS 416855: MOE gapmer, nucleobases 1275 to 1318 of SEQ ID NO: 1 (Table 8) (antisense CATTGGTGCACAGTTTCTGG; MOE gapmer, wing and gap sizes not given here)
Found: 9 10^6/μL

Lookup: Please look at this substance and report its RBC: ISIS 416859: MOE gapmer, nucleobases 1275 to 1318 of SEQ ID NO: 1 (Table 8) (antisense GACGGCATTGGTGCACAGTT; MOE gapmer, wing and gap sizes not given here)
Found: 10 10^6/μL
